Just for reference, patent US20040043420A1 is where these values come from.

- measurement-target: androgen receptor (Homo sapiens, UniProt P10275)
- Sequence (P10275 whole entry, species assumed): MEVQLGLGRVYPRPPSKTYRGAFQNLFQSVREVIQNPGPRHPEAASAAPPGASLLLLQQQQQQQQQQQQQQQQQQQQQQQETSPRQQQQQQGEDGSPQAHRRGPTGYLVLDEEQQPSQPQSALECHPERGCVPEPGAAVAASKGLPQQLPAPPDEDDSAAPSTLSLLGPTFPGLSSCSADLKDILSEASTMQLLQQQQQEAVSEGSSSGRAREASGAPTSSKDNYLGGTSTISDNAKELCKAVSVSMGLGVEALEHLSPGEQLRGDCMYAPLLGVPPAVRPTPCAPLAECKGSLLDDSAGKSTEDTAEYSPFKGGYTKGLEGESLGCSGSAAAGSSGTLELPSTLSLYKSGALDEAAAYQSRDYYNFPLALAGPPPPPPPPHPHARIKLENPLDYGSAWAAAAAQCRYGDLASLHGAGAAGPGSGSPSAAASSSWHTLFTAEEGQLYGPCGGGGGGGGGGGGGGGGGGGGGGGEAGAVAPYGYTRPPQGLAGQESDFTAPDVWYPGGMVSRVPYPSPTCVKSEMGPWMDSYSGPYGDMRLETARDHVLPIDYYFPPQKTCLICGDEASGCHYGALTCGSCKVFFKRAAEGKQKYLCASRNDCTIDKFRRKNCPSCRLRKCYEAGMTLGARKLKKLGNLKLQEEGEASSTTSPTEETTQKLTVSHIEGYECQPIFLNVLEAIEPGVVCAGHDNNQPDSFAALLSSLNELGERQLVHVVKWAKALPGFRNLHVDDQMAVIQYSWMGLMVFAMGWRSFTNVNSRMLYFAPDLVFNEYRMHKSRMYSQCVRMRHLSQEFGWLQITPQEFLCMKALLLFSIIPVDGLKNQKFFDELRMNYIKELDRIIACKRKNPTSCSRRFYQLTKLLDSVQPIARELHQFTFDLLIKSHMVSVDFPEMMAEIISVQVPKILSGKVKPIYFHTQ
- protocol-summary: Yeast two-hybrid screening of unbiased X15 peptide library, ligand-induced β-galactosidase activity (FIG. 3, Table 503)
- Assay type: cell-based
- Design: expressed in transfected cells; host or cells: Saccharomyces cerevisiae PJ69-4α
- assay-setup: no ligand
# Yeast Specificity Graph (FIG. 3): No Lig annotations
Returns: the value as a bare number; no unit string appended.

{"columns": ["substance", "assay-value"],
 "data": [
  ["EFPELLAMTRWGRHAALLEPQRLPPPRTTTQPQTEFERMFFFTRPMRTTGLLDLOPS* [B2A7]", 0.3711],
  ["EFRSSVFEQMYLCTGGSLDLOPS* [B5G11]", 0.6382],
  ["EFRQSFVSEILGGGWLPLDLOPS [M2H3]", 2.53],
  ["EFVNWDAVVPWSELVALLDLOPS [B8A10]", 0.8753],
  ["EFQQCMCAEVKSWLGGSLDLOPS* [B8E9]", 0.4989],
  ["EFRFPFHEMVREWESMGLERVRYAEP [M4D1]", 0]
]}

Alright, here's another substance for you.
Entry EFHSRLRVEVVSWGIGSTCSQANSGRISYDL* [B8H3] , Yeast Specificity Graph (FIG. 3): No Lig reported as 0.1737

----------
# Mammalian Cell Specificity Graph (FIG. 4): MPA annotations
- measurement-target: androgen receptor (Homo sapiens, UniProt P10275)
- Type: cell-based
- Set-up: expressed in transfected cells
- assay-setup: ligand MPA
Kindly provide the numeric value in Relative Light Units only, without the unit symbol.

These solved cases illustrate the format of a correct answer.
{"columns": ["substance", "assay-value"],
 "data": [
  ["EFQQCMCAEVKSWLGGSLDLOPS* [B8E9]", 18.51],
  ["EFRSSVFEQMYLCTGGSLDLOPS* [B5G11]", 8.029],
  ["HPTHSSRLWELLMEATPTM [D30]", 15.62]
]}

Entry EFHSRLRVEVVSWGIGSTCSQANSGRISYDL* [B8H3] , Mammalian Cell Specificity Graph (FIG. 4): MPA reported as 11.33
